Cited source for all entries: ChEMBL document CHEMBL2040815

system: HL-60; experiment: Cytotoxicity against human HL60 cells after 48 hrs by MTT assay; assay type: functional, cell-based; settings: HL-60, 48 h
Kindly state pIC50 for each of the entries shown.
pIC50 is a log-scale quantity: -log10 of the concentration expressed in molar.

Prompt: Bench note: what pIC50 did C=C(C)[C@@H]1CC[C@]2(C)[C@H](CC=C3[C@@H]4CC(C)(C)CC[C@]4(C)CC[C@]32C(=O)O)[C@@]1(C)CCC(=O)O show?
Completion: 4.43

Prompt: pIC50 for CC1(C)CC[C@]2(C)CC[C@]3(C(=O)O)C(=CC[C@@H]4[C@@]5(C)CCC(=O)C(C)(C)[C@@H]5CC[C@]43C)[C@@H]2C1 ?
Completion: 4.56
